Assay: Cytotoxicity upon MRC-5 cells (diploid embryonic lung cell line) at 25 uM conc.
Format: cell-based, MRC5
Conditions: human
measurement.label: cytotoxicity at 25 µM (%)
The answer is to be given in %; state only the numeric part.

These recorded examples may help you get a feel for the data.
# query: cytotoxicity at 25 µM of entry O=C(CN1CCCCC1)Nc1cc(COC(=O)CCCCN2CCOCC2)cc(Nc2ccnc3cc(Cl)ccc23)c1
0

# query: cytotoxicity at 25 µM of entry O=C(CN1CCCCC1)Nc1cc(COC(=O)CCCCCCCN2CCCCC2)cc(Nc2ccnc3cc(Cl)ccc23)c1
83

# query: cytotoxicity at 25 µM of entry O=C(CN1CCCCC1)Nc1cc(COC(=O)CCCCN2CCCCC2)cc(Nc2ccnc3cc(Cl)ccc23)c1
92

Others:
# query: cytotoxicity at 25 µM of entry CN1CCN(CCCCC(=O)OCc2cc(NC(=O)CN3CCCCC3)cc(Nc3ccnc4cc(Cl)ccc34)c2)CC1
97

# query: cytotoxicity at 25 µM of entry O=C(CN1CCCCC1)Nc1cc(COC(=O)CCN2CCCCC2)cc(Nc2ccnc3cc(Cl)ccc23)c1
90

# query: cytotoxicity at 25 µM of entry O=C(CN1CCCCC1)Nc1cc(COC(=O)c2ccnc3ccccc23)cc(Nc2ccnc3cc(Cl)ccc23)c1
100

###

Experiment: Cytotoxicity upon MRC-5 cells (diploid embryonic lung cell line) at 8 uM
Format: cell-based, MRC5
Conditions: human
Listed below: cytotoxicity at 8 µM values for each entry.
The answer is to be given in %; state only the numeric part.

These recorded examples may help you get a feel for the data.
# query: cytotoxicity at 8 µM of entry O=C(CN1CCCCC1)Nc1cc(CNC(c2ccccc2)c2ccccc2)cc(Nc2ccnc3cc(Cl)ccc23)c1
100

# query: cytotoxicity at 8 µM of entry CN(C)CCN(C)Cc1cc(NC(=O)CN2CCCCC2)cc(Nc2ccnc3cc(Cl)ccc23)c1
100

# query: cytotoxicity at 8 µM of entry O=C(CN1CCCCC1)Nc1cc(CNCc2ccc(Cl)cc2)cc(Nc2ccnc3cc(Cl)ccc23)c1
100

Please examine the following record next.
# query: cytotoxicity at 8 µM of entry CCN(CC)c1ccc(CN2CCN(Cc3cc(NC(=O)CN4CCCCC4)cc(Nc4ccnc5cc(Cl)ccc45)c3)CC2)cc1
100

###

Listed below: cytotoxicity at 32 µM values for each entry.
Test: Cytotoxicity upon MRC-5 cells (diploid embryonic lung cell line) at 32 uM
Type: cell-based, MRC5
Details: human

# query: cytotoxicity at 32 µM of entry O=C(CN1CCCCC1)Nc1cc(CN2CCN(CCO)CC2)cc(Nc2ccnc3cc(Cl)ccc23)c1
100%

# query: cytotoxicity at 32 µM of entry O=C(CN1CCCCC1)Nc1cc(CNCc2ccccc2)cc(Nc2ccnc3cc(Cl)ccc23)c1
100%

Please examine the following record next.
# query: cytotoxicity at 32 µM of entry CN(C)CCNCc1cc(NC(=O)CN2CCCCC2)cc(Nc2ccnc3cc(Cl)ccc23)c1
100%

###

Experiment: Cytotoxicity upon MRC-5 cells (diploid embryonic lung cell line) at 1 uM concentration
Type: cell-based, MRC5
Conditions: human
Listed below: cytotoxicity at 1 µM values for each entry.
The answer is to be given in %; state only the numeric part.

# query: cytotoxicity at 1 µM of entry CCN(CC)Cc1cc(Nc2ccnc3cc(Cl)ccc23)ccc1O.Cl
0

Please examine the following record next.
# query: cytotoxicity at 1 µM of entry CCN(CC)CCCC(C)Nc1ccnc2cc(Cl)ccc12 (configuration not stated) [CHLOROQUINE]
0

###

Tested on: Plasmodium falciparum
Assay: Inhibitory activity against chloroquine-resistant Plasmodium falciparum FcB1R
Assay type: functional, organism-based
Settings: Plasmodium falciparum
pIC50: −log10 of the molar value.
Bucketed by reported pIC50, buckets being low = under 7, mid = from 7 up to 8, high = 8 and over

The examples below pair each entry with its known result.
Form field 'band' for O=CNc1cc(CO)cc(Nc2ccnc3cc(Cl)ccc23)c1
low

Form field 'band' for O=C(CN1CCc2ccccc2C1)Nc1cc(CO)cc(Nc2ccnc3cc(Cl)ccc23)c1
low

Form field 'band' for O=C(CN1CCCCC1)Nc1cc(CO)cc(Nc2ccnc3cc(Cl)ccc23)c1
mid

Form field 'band' for O=C(CN1CCSC1)Nc1cc(CO)cc(Nc2ccnc3cc(Cl)ccc23)c1
low

Form field 'band' for CC(C)(C)NCc1cc(NC(=O)CN2CCCCC2)cc(Nc2ccnc3cc(Cl)ccc23)c1
high

Others:
Form field 'band' for O=C(CNCc1ccccc1)Nc1cc(CO)cc(Nc2ccnc3cc(Cl)ccc23)c1
low

Form field 'band' for O=C(CN1CCCCC1)Nc1cc(CN2CCN(c3ccccc3)CC2)cc(Nc2ccnc3cc(Cl)ccc23)c1
high

Form field 'band' for O=C(CN1CCCCC1)Nc1cc(CNc2ccccc2)cc(Nc2ccnc3cc(Cl)ccc23)c1
mid

Form field 'band' for Nc1ccn(CC(=O)Nc2cc(CO)cc(Nc3ccnc4cc(Cl)ccc34)c2)n1
low

Form field 'band' for O=C(CN1CCCCC1)Nc1cc(COC(=O)CCCCCCCN2CCCCC2)cc(Nc2ccnc3cc(Cl)ccc23)c1
low

###

Listed below: cytotoxicity at 6.3 µM values for each entry.
Assay: Cytotoxicity upon MRC-5 cells (diploid embryonic lung cell line) at 6.3 uM
Assay type: cell-based, MRC5
Conditions: human
The answer is to be given in %; state only the numeric part.

# query: cytotoxicity at 6.3 µM of entry O=C(CN1CCCC1)Nc1cc(CO)cc(Nc2ccnc3cc(Cl)ccc23)c1
0

# query: cytotoxicity at 6.3 µM of entry O=C(CO)Nc1cc(CO)cc(Nc2ccnc3cc(Cl)ccc23)c1
0

# query: cytotoxicity at 6.3 µM of entry O=C(CN1CCCCC1)Nc1cc(COC(=O)CCCCCN2CCCCC2)cc(Nc2ccnc3cc(Cl)ccc23)c1
81

# query: cytotoxicity at 6.3 µM of entry O=C(CCl)Nc1cc(CO)cc(Nc2ccnc3cc(Cl)ccc23)c1
0

# query: cytotoxicity at 6.3 µM of entry CC1CCN(CCCCCC(=O)Nc2cc(CO)cc(Nc3ccnc4cc(Cl)ccc34)c2)CC1
0

Others:
# query: cytotoxicity at 6.3 µM of entry O=C(CN1CCc2ccccc2C1)Nc1cc(CO)cc(Nc2ccnc3cc(Cl)ccc23)c1
0

###

Tested on: Plasmodium falciparum
Test: Inhibitory activity against chloroquine-resistant Plasmodium falciparum FcB1R
Assay type: functional, organism-based
Settings: Plasmodium falciparum
Friendly reminder: IC50 below 50 nM is y, at or above is n.

The examples below pair each entry with its known result.
Dear colleague, could you confirm whether IC50 of O=C(CN1CCCCC1)Nc1cc(CNCc2ccc(C(F)(F)F)cc2)cc(Nc2ccnc3cc(Cl)ccc23)c1 falls below 50 nM? Thanks.
y

Dear colleague, could you confirm whether IC50 of O=C(CN1CCCCC1)Nc1cc(CNCCN2CCCC2)cc(Nc2ccnc3cc(Cl)ccc23)c1 falls below 50 nM? Thanks.
y

Dear colleague, could you confirm whether IC50 of O=C(CN1CCCC1)Nc1cc(CO)cc(Nc2ccnc3cc(Cl)ccc23)c1 falls below 50 nM? Thanks.
y

Dear colleague, could you confirm whether IC50 of COc1ccc(CNCc2cc(NC(=O)CN3CCCCC3)cc(Nc3ccnc4cc(Cl)ccc34)c2)cc1 falls below 50 nM? Thanks.
y

Dear colleague, could you confirm whether IC50 of CN1CCN(CC(=O)Nc2cc(CO)cc(Nc3ccnc4cc(Cl)ccc34)c2)CC1 falls below 50 nM? Thanks.
n

Dear colleague, could you confirm whether IC50 of CC1CCN(CCCCCCCCCCCC(=O)Nc2cc(CO)cc(Nc3ccnc4cc(Cl)ccc34)c2)CC1 falls below 50 nM? Thanks.
n

Dear colleague, could you confirm whether IC50 of O=C(CO)Nc1cc(CO)cc(Nc2ccnc3cc(Cl)ccc23)c1 falls below 50 nM? Thanks.
n

Dear colleague, could you confirm whether IC50 of O=C(CN1CCCCC1)Nc1cc(COC(=O)CCCCN2CCCCC2)cc(Nc2ccnc3cc(Cl)ccc23)c1 falls below 50 nM? Thanks.
y

Dear colleague, could you confirm whether IC50 of O=C(CCl)Nc1cc(CO)cc(Nc2ccnc3cc(Cl)ccc23)c1 falls below 50 nM? Thanks.
n

Dear colleague, could you confirm whether IC50 of O=C(CN1CCCCC1)Nc1cc(COC(=O)c2ccnc3ccccc23)cc(Nc2ccnc3cc(Cl)ccc23)c1 falls below 50 nM? Thanks.
y

Others:
Dear colleague, could you confirm whether IC50 of O=C(CN1CCCCC1)Nc1cc(CN2CCN(Cc3ccc([N+](=O)[O-])cc3)CC2)cc(Nc2ccnc3cc(Cl)ccc23)c1 falls below 50 nM? Thanks.
y

Dear colleague, could you confirm whether IC50 of O=C(CNCc1ccc(Cl)cc1)Nc1cc(CO)cc(Nc2ccnc3cc(Cl)ccc23)c1 falls below 50 nM? Thanks.
n

Dear colleague, could you confirm whether IC50 of O=C(CN1CCCCC1)Nc1cc(CN2CCC(O)CC2)cc(Nc2ccnc3cc(Cl)ccc23)c1 falls below 50 nM? Thanks.
y

Dear colleague, could you confirm whether IC50 of O=C(CN1CCCCC1)Nc1cc(CN2CCOCC2)cc(Nc2ccnc3cc(Cl)ccc23)c1 falls below 50 nM? Thanks.
y

Dear colleague, could you confirm whether IC50 of CN(C)CCCNCc1cc(NC(=O)CN2CCCCC2)cc(Nc2ccnc3cc(Cl)ccc23)c1 falls below 50 nM? Thanks.
n
